- Tested on: U-251
- assay.explanation: NCI tumour cell line growth inhibition, 48 h
Active and inactive are the calls of the source. Cut-off read from the data, not from the text of the source: active = GI50 up to about 1.1 µM and inactive = higher.
endpoint: GI50

CC1(C)C(=O)/C=C\C(=O)C(C)(C)C2=CC=C(O2)C(C)(C)C(=O)C(Br)C(Br)C(=O)C(C)(C)C2=CC=C1O2 (stereo unspecified)	41.4 µM (inactive)

Please report GI50 for every entry that follows.
1. CC[C@H](C)C1=C(OC(C)=O)[N@+]2([O-])Oc3ccc(-c4c(OC(C)=O)c(OC(C)=O)c(-c5ccc(OC(C)=O)cc5)c(OC(C)=O)c4OC(C)=O)cc3O[C@]2([C@@H](C)CC)C(=O)N1OC(C)=O
2. COc1cc2c(cc1OC)C(C#N)(Cc1ccccc1)N(C(=O)c1ccccc1)C=C2 (stereo unspecified)
3. COc1ccc(C(=O)C(c2ccc(OC)cc2)C2(O)C(=O)Nc3c2ccc(Cl)c3C)cc1 (stereo unspecified)
4. CC(C)c1cccc(C(C)C)c1N1C(=O)C(=O)C(c2nc3ccccc3o2)C(=O)C1=O

Output:
1: 16 µM (inactive); 2: > 100 µM (inactive); 3: > 100 µM (inactive); 4: > 100 µM (inactive)

State the recorded GI50 for every item in the following list.
1. Cc1ccc(O)c(Cc2nc3ccccc3nc2-c2cccc(Br)c2)c1
2. N/C(=N\O)N/N=C\c1c2ccccc2c(Cl)c2ccccc12
3. CCN(CC)C(=O)c1c(Cl)cc(N(CC)CC)oc1=O
4. CC(O)c1ccc(C(O)/C(=N\NC(=O)c2ccncc2)c2nc3ccc([N+](=O)[O-])cc3nc2O)cc1 (stereo unspecified)
5. CN(C)CCCNc1cnc2cc3ccccc3cc2n1

Output:
1: > 100 µM (inactive); 2: 7.5 µM (inactive); 3: > 100 µM (inactive); 4: > 100 µM (inactive); 5: 36.5 µM (inactive)

# per-item lookup of GI50; items listed below
1. CC(=O)CC(=O)Nc1ccc2ccccc2c1
2. C/C=C1/CN2CCC34C(=C(C(=O)OC)C1CC23)Nc1ccc(O)cc14 (stereo unspecified)
3. Cc1c(F)c(NC(=O)CN(C)C)c2c(=O)cc(-c3ccc(NC(=O)CN(C)C)c(F)c3)oc2c1F
4. COc1ccc(C(=O)O/N=C2/CCC/C2=C\c2ccccc2)cc1
5. O=[N+]([O-])c1cc(Cl)ccc1S(=O)(=O)c1ccccc1

Output:
["> 100 µM (inactive)", "> 100 µM (inactive)", "14.2 µM (inactive)", "> 70.3 µM (inactive)", "> 100 µM (inactive)"]

Briefly, GI50 measured for C[N+](C)(C)C(Cc1c[nH]c(=S)[nH]1)C(=O)O (stereo unspecified) : > 100 µM (inactive)
